This collection of values is drawn from ChEMBL document CHEMBL1145951.

target: NS3 (Hepatitis C virus, UniProt A3EZJ3, K136R); experiment: Binding affinity for NS3 protease K136R; set-up: species or system Hepacivirus hominis
propertyMeasured: Ki

molecule="CC(C)COC(=O)NC(C(=O)N[C@@H](CC(C)C)C(=O)NC(CC(F)F)C(=O)NCCc1ccc(C(=O)O)cc1Cl)C(C)C (stereo partly specified)" result="2300 nM"

###

biological target: NS3 (Hepatitis C virus, UniProt A3EZJ3, K136R); experiment: Binding affinity for enzyme K136R; parameters: species or system Hepacivirus hominis
pKi: −log10 of the molar value.
propertyMeasured: pKi

molecule="CC(C)COC(=O)NC(CCC(=O)O)C(=O)N[C@@H](CC(C)C)C(=O)NC(CC(F)F)C(=O)NCCc1ccc(C(=O)O)cc1Cl (some centres not stated)" assaytarget="NS3 (Hepatitis C virus, UniProt A3EZJ3, K136R)" quantitativeresult=6.05
molecule="CC(C)C[C@H](NC(=O)C(CCC(=O)O)NC(=O)OC(C)(C)C)C(=O)NC(CC(F)F)C(=O)NCCc1ccccc1Cl (some centres not stated)" assaytarget="NS3 (Hepatitis C virus, UniProt A3EZJ3, K136R)" quantitativeresult=5.08

###

biological target: Hepatitis C virus serine protease, NS3/NS4A (Hepatitis C virus, UniProt A3EZI9+D2K2A8); experiment: Inhibitory activity against Hepatitis C NS3/NS4A protease; type: protein-complex assay, Hepacivirus hominis
pIC50: −log10 of the molar value. Starred links: 1 amine or outer side, 2 acyl side, 3 side chain; linkers in the order of their positions; H or OH if unused. Non-standard residues stand in square brackets, D forms with d. Residues, ends and D or L forms follow the SMILES beside them. ξ: configuration not given here. *: point of attachment. Dip = N[C@H](C(=O)O)C(c1ccccc1)c1ccccc1; X4 = O=C(C(=O)[*:2])[C@H](CC(F)F)N[*:1]; X1 = O=C(NOCc1ccccc1)[C@H](CC(F)F)N*; Abu(4,4-F2) = N[C@@H](CC(F)F)C(=O)O; N(Me)CH2CH2Ph = CN(CCc1ccccc1)*; Cha = N[C@@H](CC1CCCCC1)C(=O)O; NH(CH2)3Ph = c1ccc(CCCN*)cc1; NHPhenethyl = c1ccc(CCN*)cc1; X6 = c1ccc2c(c1)CC(N*)C2; ξE = NC(CCC(=O)O)C(=O)O; Cbz = O=C(OCc1ccccc1)*; Boc = CC(C)(C)OC(=O)*; NHBn = c1ccc(CN*)cc1; X5 = C1CCC(CCN*)CC1
Lab note: anything with pIC50 at or over 6 counts as yes; the rest go in no.

compound="CC(C)C[C@H](NC(=O)[C@@H](NC(=O)OCc1ccccc1)C(C)C)C(=O)N[C@@H](CS)C(=O)NCCc1ccccc1 (Cbz-Val-Leu-Cys-NHPhenethyl)" classassignment=no
compound="CC(=O)N[C@@H](CC(=O)O)C(=O)N[C@@H](CCC(=O)O)C(=O)N[C@H](C(=O)N[C@@H](CCC(=O)O)C(=O)N[C@@H](CC1CCCCC1)C(=O)N[C@@H](CS)C(=O)NC1Cc2ccccc2C1)C(c1ccccc1)c1ccccc1 (Ac-DE[Dip]E[Cha]C-X6)" classassignment=no
compound="CC(=O)N[C@@H](CC(=O)O)C(=O)N[C@@H](CCC(=O)O)C(=O)N[C@H](C(=O)N[C@@H](CCC(=O)O)C(=O)N[C@@H](CC1CCCCC1)C(=O)N[C@@H](CS)C(=O)NCCC1CCCCC1)C(c1ccccc1)c1ccccc1 (Ac-DE[Dip]E[Cha]C-X5)" classassignment=no
compound="CC(=O)N[C@@H](CC(=O)O)C(=O)N[C@@H](CCC(=O)O)C(=O)N[C@H](C(=O)N[C@@H](CCC(=O)O)C(=O)N[C@@H](CC1CCCCC1)C(=O)N[C@@H](CC(F)F)C(=O)C(=O)NCc1ccccc1)C(c1ccccc1)c1ccccc1 (Ac-DE[Dip]E[Cha][X4]-NHBn)" classassignment=yes
compound="CC(C)COC(=O)NC(CCC(=O)O)C(=O)N[C@@H](CC(C)C)C(=O)NC(CS)C(=O)NCCc1ccccc1C(=O)O (some centres undefined)" classassignment=no
compound="CC(C)C[C@H](NC(=O)C(CCC(=O)O)NC(=O)OC(C)(C)C)C(=O)N[C@@H](CS)C(=O)NCc1ccccc1 (stereo partly drawn) (Boc-[ξE]-Leu-Cys-NHBn)" classassignment=no
compound="CC(=O)N[C@@H](CC(=O)O)C(=O)N[C@@H](CCC(=O)O)C(=O)N[C@H](C(=O)N[C@@H](CCC(=O)O)C(=O)N[C@@H](CC1CCCCC1)C(=O)N[C@@H](CS)C(=O)NCCc1ccccc1)C(c1ccccc1)c1ccccc1 (Ac-DE[Dip]E[Cha]C-NHPhenethyl)" classassignment=yes
compound="CC(C)C[C@H](NC(=O)[C@H](CCC(=O)O)NC(=O)OC(C)(C)C)C(=O)N[C@@H](CS)C(=O)O (Boc-Glu-Leu-Cys-OH)" classassignment=no
compound="CC(C)C[C@H](NC(=O)C(CCC(=O)O)NC(=O)OC(C)(C)C)C(=O)N[C@@H](CS)C(=O)NCCc1ccccc1 (stereo partly drawn) (Boc-[ξE]-Leu-Cys-NHPhenethyl)" classassignment=no
compound="CC(=O)N[C@@H](CC(=O)O)C(=O)N[C@@H](CCC(=O)O)C(=O)N[C@H](C(=O)N[C@@H](CCC(=O)O)C(=O)N[C@@H](CC1CCCCC1)C(=O)N[C@@H](CC(F)F)C(=O)NOCc1ccccc1)C(c1ccccc1)c1ccccc1 (Ac-DE[Dip]E[Cha]-X1)" classassignment=yes
compound="CC(C)C[C@H](NC(=O)C(CCC(=O)O)NC(=O)OC(C)(C)C)C(=O)N[C@@H](CS)C(=O)NCCc1ccccc1Cl (some centres undefined)" classassignment=no
compound="COC(=O)c1ccc(CCNC(=O)C(CS)NC(=O)[C@H](CC(C)C)NC(=O)C(CCC(=O)O)NC(=O)OCC(C)C)c(Cl)c1 (some centres undefined)" classassignment=no
compound="CC(C)COC(=O)NC(CCC(=O)O)C(=O)N[C@@H](CC(C)C)C(=O)NC(CS)C(=O)NCCc1ccccc1 (some centres undefined)" classassignment=no
compound="CC(=O)N[C@@H](CC(=O)O)C(=O)N[C@@H](CCC(=O)O)C(=O)N[C@H](C(=O)N[C@@H](CCC(=O)O)C(=O)N[C@@H](CC1CCCCC1)C(=O)N[C@@H](CS)C(=O)N(C)CCc1ccccc1)C(c1ccccc1)c1ccccc1 (Ac-DE[Dip]E[Cha]C-{N(Me)CH2CH2Ph})" classassignment=no
compound="COC(=O)c1ccccc1CCNC(=O)C(CS)NC(=O)[C@H](CC(C)C)NC(=O)C(CCC(=O)O)NC(=O)OCC(C)C (some centres undefined)" classassignment=no
compound="COC(=O)c1cccc(CCNC(=O)C(CS)NC(=O)[C@H](CC(C)C)NC(=O)C(CCC(=O)O)NC(=O)OCC(C)C)c1 (some centres undefined)" classassignment=no
compound="CC(=O)N[C@@H](CC(=O)O)C(=O)N[C@@H](CCC(=O)O)C(=O)N[C@H](C(=O)N[C@@H](CCC(=O)O)C(=O)N[C@@H](CC1CCCCC1)C(=O)N[C@@H](CS)C(=O)NCCCc1ccccc1)C(c1ccccc1)c1ccccc1 (Ac-DE[Dip]E[Cha]C-{NH(CH2)3Ph})" classassignment=yes
compound="CC(=O)N[C@@H](CC(=O)O)C(=O)N[C@@H](CCC(=O)O)C(=O)N[C@H](C(=O)N[C@@H](CCC(=O)O)C(=O)N[C@@H](CC1CCCCC1)C(=O)N[C@@H](CC(F)F)C(=O)NCCc1ccccc1)C(c1ccccc1)c1ccccc1 (Ac-DE[Dip]E[Cha][Abu(4,4-F2)]-NHPhenethyl)" classassignment=yes
